Observed pIC50, system HDAC5 (Homo sapiens (Human), UniProt Q9UQL6).
Formally, pIC50 is defined as -log10 of the concentration c, with c in mol/L.

O=C(NC(Cc1ccc(-c2noc(C(F)(F)F)n2)cn1)c1cccc(C(F)(F)F)c1)c1cccnc1 (racemic)
6.42
Fc1cc(COc2ccc3cncnc3c2)ccc1-c1noc(C(F)(F)F)n1
6.55
Fc1cc(COc2cncc(Cl)c2)ccc1-c1noc(C(F)(F)F)n1
6.82
Fc1cc(COc2cnc3[nH]ccc3c2)ccc1-c1noc(C(F)(F)F)n1
7.08
FC(F)(F)c1nc(-c2ccnc(OCc3nccnc3Cl)c2Cl)no1
6.39

Form: molecule = O=C(C(Cc1ccc(-c2noc(C(F)(F)F)n2)cn1)c1cccc(C(F)(F)F)c1)N1CC[S+]([O-])CC1 (racemic) ; pIC50 = 5.68

====

Observed IC50, system HDAC5 (Homo sapiens (Human), UniProt Q9UQL6).
Please state the value followed by its unit.

// below: answered molecules
Cc1nc2ccc(F)cc2n1Cc1ccc(-c2noc(C(F)(F)F)n2)cn1
36 nM
Fc1cc(COc2ccccc2)ccc1-c1noc(C(F)(F)F)n1
760 nM
CCNC(=O)NC(Cc1ccc(-c2noc(C(F)(F)F)n2)cn1)c1cccc(C(F)(F)F)c1 (stereo not drawn)
390 nM
O=C(NC(Cc1ccc(-c2noc(C(F)(F)F)n2)cn1)c1cccc(C(F)(F)F)c1)C(F)(F)F (stereo not drawn)
320 nM
FC(F)c1cc(OCc2ccc(-c3noc(C(F)(F)F)n3)cn2)ncn1
220 nM
CC(C)(C)OC(=O)[C@@H]1CCC(=O)N1c1ccc(-c2noc(C(F)(F)F)n2)c(F)c1F
17 nM

// assay HDAC5 (Homo sapiens (Human), UniProt Q9UQL6), entry FC(F)(F)c1nc(-c2ccc(N3CCOCC3c3ccccc3Cl)nc2)no1 (stereo not drawn) , IC50 value = 74 nM

// assay HDAC5 (Homo sapiens (Human), UniProt Q9UQL6), entry O=C(C1CCS(=O)(=O)CC1)N(Cc1ccc(-c2noc(C(F)(F)F)n2)cn1)c1ccccc1C(F)(F)F , IC50 value = 1400 nM

// assay HDAC5 (Homo sapiens (Human), UniProt Q9UQL6), entry FC(F)(F)c1nc(-c2ccc(N3CCOCC3c3cccnc3)nc2)no1 (stereo not drawn) , IC50 value = 31 nM

// assay HDAC5 (Homo sapiens (Human), UniProt Q9UQL6), entry O=C1CCC(c2ccccc2)N1c1ccc(-c2noc(C(F)(F)F)n2)c(F)c1 (stereo not drawn) , IC50 value = 74 nM

// assay HDAC5 (Homo sapiens (Human), UniProt Q9UQL6), entry Fc1cc(COc2ccc3cnccc3n2)ccc1-c1noc(C(F)(F)F)n1 , IC50 value = 8.4 nM

// assay HDAC5 (Homo sapiens (Human), UniProt Q9UQL6), entry COc1ccc2cc(OCc3ccc(-c4noc(C(F)(F)F)n4)c(F)c3)nnc2c1 , IC50 value = 87 nM

// assay HDAC5 (Homo sapiens (Human), UniProt Q9UQL6), entry Cn1c([C@@H]2CCC(=O)N2c2ccc(-c3noc(C(F)(F)F)n3)cc2)nc2ccccc21 , IC50 value = 120 nM

// assay HDAC5 (Homo sapiens (Human), UniProt Q9UQL6), entry Fc1c(-c2noc(C(F)(F)F)n2)ccnc1OCc1nc(C2CC2)no1 , IC50 value = 220 nM

====

Observed IC50, system HDAC8 (Homo sapiens (Human), UniProt Q9BY41).
Please state the value followed by its unit.

// below: answered compounds
Cc1nccnc1C(=O)N(Cc1ccc(-c2noc(C(F)(F)F)n2)cn1)c1cccc(F)c1
3100 nM
Cc1nccc(OCc2ccc(-c3noc(C(F)(F)F)n3)c(F)c2)n1
3000 nM
O=C(NCc1ccc(-c2noc(C(F)(F)F)n2)cc1)C1CCCC1
2900 nM
CC(C)(C(=O)N(Cc1ccc(-c2noc(C(F)(F)F)n2)cn1)c1cccc(F)c1)n1cncn1
3100 nM
CC(C)N1CCCC(C(=O)N(Cc2ccc(-c3noc(C(F)(F)F)n3)cn2)c2cccc(F)c2)C1 (racemic)
2000 nM
O=C(c1cccc(NCc2ccc(-c3noc(C(F)(F)F)n3)cn2)c1)N1CCCC1
1400 nM
O=C(C1CCOCC1)N(Cc1ccc(-c2noc(C(F)(F)F)n2)cc1)c1cccc(C(F)(F)F)c1
2300 nM
CC(C(=O)N(Cc1ccc(-c2noc(C(F)(F)F)n2)cn1)c1cccc(F)c1)c1ccn(C)n1 (racemic)
1700 nM

Form: compound = Cn1ncc(NCc2ccc(-c3noc(C(F)(F)F)n3)cn2)n1 ; IC50 = 2700 nM

Form: compound = FC(F)(F)c1nc(-c2ccc(CNc3cnccn3)cc2)no1 ; IC50 = 1900 nM

Form: compound = Nc1cccnc1COCc1ccc(-c2noc(C(F)(F)F)n2)c(F)c1 ; IC50 = 4500 nM

Form: compound = CC(C)(C)OC(=O)N1CC(=O)N(c2ccc(-c3noc(C(F)(F)F)n3)cc2)[C@H](c2ccccc2)C1 (racemic) ; IC50 = 4300 nM

Form: compound = Cc1n[nH]c2c1CC(NCc1ccc(-c3noc(C(F)(F)F)n3)cn1)CC2 (racemic) ; IC50 = 2900 nM

====

tested target: HDAC1 (Homo sapiens (Human))
Sequence (Q13547 whole entry): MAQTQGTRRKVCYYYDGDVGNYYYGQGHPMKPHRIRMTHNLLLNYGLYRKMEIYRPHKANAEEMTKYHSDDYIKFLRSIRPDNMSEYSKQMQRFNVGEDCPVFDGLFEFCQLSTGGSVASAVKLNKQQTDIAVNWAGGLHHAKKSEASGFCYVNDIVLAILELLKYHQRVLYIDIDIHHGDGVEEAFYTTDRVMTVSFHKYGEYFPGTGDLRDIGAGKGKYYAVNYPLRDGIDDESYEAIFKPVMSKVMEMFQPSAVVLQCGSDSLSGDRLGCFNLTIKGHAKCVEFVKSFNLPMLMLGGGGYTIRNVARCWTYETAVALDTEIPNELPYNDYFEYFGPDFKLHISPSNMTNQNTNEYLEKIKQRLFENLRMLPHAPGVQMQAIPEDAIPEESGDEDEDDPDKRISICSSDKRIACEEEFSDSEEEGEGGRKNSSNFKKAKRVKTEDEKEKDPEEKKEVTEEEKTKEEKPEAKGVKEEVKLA
metric: IC50 (nM)
Give your result in nM as a bare value.

Cc1cccc(N2CCC(NCc3ccc(-c4noc(C(F)(F)F)n4)cc3)CC2)c1
730
O=C(C1CCS(=O)(=O)CC1)N(Cc1ccc(-c2noc(C(F)(F)F)n2)cc1)c1cccc(C(F)(F)F)c1
1340
O=C(Cn1cncn1)N(Cc1ccc(-c2noc(C(F)(F)F)n2)cc1)c1cccc(C(F)(F)F)c1
690
Fc1cc(COc2cnc(C3CC3)nc2)ccc1-c1noc(C(F)(F)F)n1
1500
O=C(N(Cc1ccc(-c2noc(C(F)(F)F)n2)cn1)c1cccc(F)c1)C1(CN2CCOCC2)CC1
240
Fc1cc(COc2cnc3c(c2)COC3)ccc1-c1noc(C(F)(F)F)n1
1500
O=C1CCC(c2ccccc2)N1c1ccc(-c2noc(C(F)(F)F)n2)c(F)c1 (stereo not drawn)
1900
CN1CCN(c2ccc(-c3noc(C(F)(F)F)n3)cc2)C(c2ccccc2)C1 (stereo not drawn)
5300
Fc1ccccc1OCc1ccc(-c2noc(C(F)(F)F)n2)cn1
1200
Cc1ccc(NCc2ccc(-c3noc(C(F)(F)F)n3)cn2)nn1
1400

Form: molecule = O=C1Nc2ccccc2CC1NCc1ccc(-c2noc(C(F)(F)F)n2)cn1 (racemic) ; IC50 = 1000

Form: molecule = O=C1CSc2ccccc2N1Cc1ccc(-c2noc(C(F)(F)F)n2)cn1 ; IC50 = 130

Form: molecule = CC(C)N1CCCC(C(=O)N(Cc2ccc(-c3noc(C(F)(F)F)n3)cn2)c2cccc(F)c2)C1 (racemic) ; IC50 = 260

Form: molecule = CC(C(=O)N(Cc1ccc(-c2noc(C(F)(F)F)n2)cn1)c1cccc(F)c1)c1ccn(C)n1 (racemic) ; IC50 = 220

====

Observed IC50, system HDAC1 (Homo sapiens (Human)).
Give your result in nM as a bare value.

CC1(C)CC(c2ccccc2)N(c2ccc(-c3noc(C(F)(F)F)n3)cc2F)C1=O (racemic)
1400

Form: compound = CC(C)C(=O)NC(Cc1ccc(-c2noc(C(F)(F)F)n2)cn1)c1cccc(C(F)(F)F)c1 (racemic) ; IC50 = 680

Form: compound = Cn1ccc(NCc2ccc(-c3noc(C(F)(F)F)n3)cn2)cc1=O ; IC50 = 890

Form: compound = CC(C(=O)N(Cc1ccc(-c2noc(C(F)(F)F)n2)cc1)c1cccc(C(F)(F)F)c1)n1cncn1 (racemic) ; IC50 = 720

Form: compound = COc1ncccc1OCc1ccc(-c2noc(C(F)(F)F)n2)cn1 ; IC50 = 740

====

Observed pIC50, system HDAC1 (Homo sapiens (Human), UniProt Q13547).
Formally, pIC50 is defined as -log10 of the concentration c, with c in mol/L.

// below: answered molecules
CC(C)c1ncncc1C(=O)N(Cc1ccc(-c2noc(C(F)(F)F)n2)cn1)c1cccc(F)c1 [Example 399]
6.03
FC(F)(F)c1nc(-c2ccc(COc3nncc4ccccc34)nc2)no1 [Example 298]
6.00
Fc1cc(COc2ccc3cccc(F)c3n2)ccc1-c1noc(C(F)(F)F)n1 [Example 282]
6.14

Read the next record carefully.
Form: molecule = Cc1noc([C@@H]2CCCCN2c2ccc(-c3noc(C(F)(F)F)n3)cn2)n1 [Example 140] ; pIC50 = 6.03

====

tested target: HDAC1 (Homo sapiens (Human))
metric: pIC50
Formally, pIC50 is defined as -log10 of the concentration c, with c in mol/L.

// below: answered compounds
O=c1ccc2ccc(C(F)(F)F)cc2n1Cc1ccc(-c2noc(C(F)(F)F)n2)cn1
6.55
CC(=O)N1CCN(CC(=O)N(Cc2ccc(-c3noc(C(F)(F)F)n3)cc2)c2cccc(C(F)(F)F)c2)CC1
5.89
COCCN1Cc2ccccc2N(Cc2ccc(-c3noc(C(F)(F)F)n3)cn2)C1=O
6.34
CCS(=O)(=O)N(Cc1ccc(-c2noc(C(F)(F)F)n2)cc1)c1cccc(C(F)(F)F)c1
6.09
Cc1ccncc1COc1ccc(-c2noc(C(F)(F)F)n2)cn1
5.66

Form: compound = FC(F)(F)c1nc(-c2ccc(CNc3cc4ccccn4n3)nc2)no1 ; pIC50 = 5.92
